Recorded values, source the RNAGym collection of RNA variant scans (doi:10.7554/elife.80360).

B1: HDV Ribozyme (parent)
chain: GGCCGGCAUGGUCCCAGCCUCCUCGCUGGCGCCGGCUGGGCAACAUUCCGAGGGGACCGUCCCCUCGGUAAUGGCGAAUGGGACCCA

Variants of: B1
Experiment: self-cleavage, relative activity (ratio to wild type); higher = more cleavage; co-transcriptional
Recorded self-cleavage for the following variants

{"mutation_key": "C3G C7A", "self-cleavage": 0.0213}
{"mutation_key": "C14A C33U", "self-cleavage": 0.587}
{"mutation_key": "C41G U60G", "self-cleavage": 0.72}
{"mutation_key": "G1A A16C", "self-cleavage": 0.158}
{"mutation_key": "C14A U79A", "self-cleavage": 0.369}
{"mutation_key": "U12G C21A", "self-cleavage": 0}
{"mutation_key": "C26A A87C", "self-cleavage": 0.944}
{"mutation_key": "U27G G68U", "self-cleavage": 0.858}
{"mutation_key": "C7U C61A", "self-cleavage": 0.87}
{"mutation_key": "C14U G17C", "self-cleavage": 0.156}
{"mutation_key": "G73A C86U", "self-cleavage": 0.831}
{"mutation_key": "G28C A87C", "self-cleavage": 0.0987}
{"mutation_key": "A45U A83U", "self-cleavage": 0.128}
{"mutation_key": "C19A A71G", "self-cleavage": 0.136}
{"mutation_key": "G6U C19U", "self-cleavage": 0.0489}
{"mutation_key": "A45C U65A", "self-cleavage": 0.87}
{"mutation_key": "G6A C13A", "self-cleavage": 0.185}
{"mutation_key": "C44A A78G", "self-cleavage": 0.175}
{"mutation_key": "U12A U20C", "self-cleavage": 0}
{"mutation_key": "U23A U46A", "self-cleavage": 0.623}
{"mutation_key": "U9C C36G", "self-cleavage": 0}
{"mutation_key": "U60G C86U", "self-cleavage": 0.959}
{"mutation_key": "C41U A43C", "self-cleavage": 0.831}
{"mutation_key": "A51C G74U", "self-cleavage": 0.383}
{"mutation_key": "G39C U60G", "self-cleavage": 0.185}
{"mutation_key": "C3G", "self-cleavage": 0.753}
{"mutation_key": "C24G C36U", "self-cleavage": 0.0627}
{"mutation_key": "G17U G31A", "self-cleavage": 0.107}
{"mutation_key": "G11C C75A", "self-cleavage": 0.0536}
{"mutation_key": "U46G U47A", "self-cleavage": 0.8}
{"mutation_key": "G52A G81A", "self-cleavage": 0.529}
{"mutation_key": "A45G C61A", "self-cleavage": 1.15}
{"mutation_key": "G55U C86A", "self-cleavage": 0.911}
{"mutation_key": "G17A G28A", "self-cleavage": 0}
{"mutation_key": "A51C G67U", "self-cleavage": 0.939}
{"mutation_key": "G1U G67A", "self-cleavage": 0.506}
{"mutation_key": "C18U A77U", "self-cleavage": 0.0678}
{"mutation_key": "C61U G76C", "self-cleavage": 1.05}
{"mutation_key": "G1C G25U", "self-cleavage": 0.0665}
{"mutation_key": "U47C G82U", "self-cleavage": 0.111}
{"mutation_key": "G10A G11C", "self-cleavage": 0.256}
{"mutation_key": "A16U G81U", "self-cleavage": 0.554}
{"mutation_key": "G68A G81C", "self-cleavage": 0.175}
{"mutation_key": "G17A G50U", "self-cleavage": 0.815}
{"mutation_key": "G35C G81A", "self-cleavage": 0.0332}
{"mutation_key": "G35U G82C", "self-cleavage": 0.161}
{"mutation_key": "G2U G53A", "self-cleavage": 0.0412}
{"mutation_key": "G68A G80C", "self-cleavage": 0.286}
{"mutation_key": "A51C C75G", "self-cleavage": 0.415}
{"mutation_key": "G17U C61G", "self-cleavage": 0.424}
{"mutation_key": "G38U", "self-cleavage": 0.255}
{"mutation_key": "C58G G68A", "self-cleavage": 1.03}
{"mutation_key": "G5U U37G", "self-cleavage": 0.0755}
{"mutation_key": "C62A U79A", "self-cleavage": 0.636}
{"mutation_key": "G50C C64G", "self-cleavage": 0.383}
{"mutation_key": "G11C U47G", "self-cleavage": 0.383}
{"mutation_key": "C3A U27C", "self-cleavage": 0.217}
{"mutation_key": "U47C C62G", "self-cleavage": 0.415}
{"mutation_key": "G11C C24A", "self-cleavage": 0.0898}
{"mutation_key": "C75A G76C", "self-cleavage": 0.166}
{"mutation_key": "C48G G73C", "self-cleavage": 0.403}
{"mutation_key": "U27A G68U", "self-cleavage": 0.875}
{"mutation_key": "G17A G31C", "self-cleavage": 0.188}
{"mutation_key": "C22A G76U", "self-cleavage": 0.554}
{"mutation_key": "A42U A51U", "self-cleavage": 0.509}
{"mutation_key": "C22U U65G", "self-cleavage": 0.845}
{"mutation_key": "G10A G80C", "self-cleavage": 0.131}
{"mutation_key": "G50A G80C", "self-cleavage": 0.284}
{"mutation_key": "C64U U65G", "self-cleavage": 0.784}
{"mutation_key": "G6A C22A", "self-cleavage": 0.208}
{"mutation_key": "G2U G17U", "self-cleavage": 0.0366}
{"mutation_key": "G38U G73U", "self-cleavage": 0.146}
{"mutation_key": "G55C G73A", "self-cleavage": 0.751}
{"mutation_key": "G55C C84G", "self-cleavage": 0.712}
{"mutation_key": "C21A C32U", "self-cleavage": 0.0978}
{"mutation_key": "G80U G81C", "self-cleavage": 0.199}
{"mutation_key": "C3A U69G", "self-cleavage": 0.567}
{"mutation_key": "U46G C84G", "self-cleavage": 0.185}
{"mutation_key": "G35C U69G", "self-cleavage": 0.277}
{"mutation_key": "C13A U46A", "self-cleavage": 0.0346}
{"mutation_key": "C7U C64G", "self-cleavage": 0.892}
{"mutation_key": "U27A G52A", "self-cleavage": 0.844}
{"mutation_key": "C7A A78G", "self-cleavage": 0.0875}
{"mutation_key": "C24G A45C", "self-cleavage": 0.0302}
{"mutation_key": "C26A A77C", "self-cleavage": 0.266}
